Tested on: DU-145 prostate
PROTOCOL: NCI tumour cell line growth inhibition, 48 h
PARAMETER: TGI (µM)
Answer in µM, number only, no unit symbol.

Test system DU-145 prostate; read-out TGI; what value for N#Cc1ccccc1C#C/C=C\C#Cc1cccs1 ?
77.3

Query CCOC1c2cc(OC)c(OC)cc2-c2ccc3ccccc3c2N1C (stereo not given) next
52.4

How about O=c1[nH]c2ccccc2nc1CBr ?
37.1

Let us now turn to O=c1c2c3c(sc2n2c(CCl)nnc2n1Cc1ccccc1)CCCC3
6.18

* * *

Test system: M14 melanoma
PROTOCOL: NCI tumour cell line growth inhibition, 48 h
PARAMETER: TGI

Endpoint output: TGI of O=C(Cc1nc2cccnc2nc1/C=C(\O)c1ccccc1)c1ccccc1 . Value?
> 100 µM

Check CC(C)(C)c1ccc2c(c1)S(=O)(=O)Nc1cccc(c1)NS(=O)(=O)c1cc(C(C)(C)C)ccc1OCCOCCO2 too.
> 100 µM

Field entry: O=[N+]([O-])c1ccc(-c2nc(/C=N/N3CCCCC3)cs2)o1
> 100 µM

What do you have for Cc1ccc(S(=O)(=O)Oc2ccccc2-c2ccccc2)cc1 ?
> 86.1 µM

Similarly, Oc1cccc2cc(Cl)cnc12 ?
> 100 µM

Try C=C1CC(c2ccc(O)c(OC)c2)Oc2c(OC)cccc21 (configuration not stated) next.
> 100 µM

Now consider C=C1C(=O)C2=C[C@H]1C[C@H](O)C(=O)[C@]1(C)CCCC(C)(C)[C@H]1C[C@H]2O and answer again.
2.85 µM

How about COc1ccc(COC(=O)NNC(=O)C2CSC(c3ccccc3)N2C(C)=O)cc1 (configuration not stated) ?
> 100 µM

What about this molecule? CN1N=C(c2ccncc2)OC1c1ccc(Cl)cc1Cl (configuration not stated)
> 100 µM

What do you get for Cc1cc(=O)[nH]c(NN2C(Cl)C(=O)C2c2ccc(O)cc2)n1 (configuration not stated) ?
24.6 µM

Try this molecule too: COC1OC(C)C(OC(=O)C(C)(C)C)C(OS(=O)(=O)c2ccc(C)cc2)C1OS(=O)(=O)c1ccc(C)cc1 (configuration not stated)
> 100 µM

Record: Cc1cc(Br)ccc1NC1=CC(=O)C(=O)c2ccccc21
> 100 µM

What do you have for Cc1c(CN)c(C)c(CN)c(C)c1CN ?
> 100 µM

Field entry: CC12CC[C@@H]3c4cc5c(cc4CC[C@H]3[C@@H]1CCC2O)oc1cc(F)ccc15 (some centres not stated)
74.1 µM

How about this molecule: O=C1C=Cc2c(-c3ccccc3)oc3cccc1c23
> 100 µM

Another molecule to check: CO[C@]12C#CC=CC#C[C@@H](O)[C@]3(CCC1)O[C@@]23c1cccc(O)c1
> 100 µM

Item: CCOC(=O)[C@@]12C(C)=CC(=O)O[C@]1(C)C[C@H]2C#N
> 100 µM

Follow-up entry: N#CC1Sc2ccccc2-n2cccc21 (configuration not stated)
> 100 µM

Can you check COc1ccc(/C=C/C(=O)Oc2ccc(/C=C3\CCCCC3=O)cc2)cc1 next?
> 100 µM

Queued: CC(C)(C)OC(=O)CCC1NC(=O)[C@@H]2Cc3c([nH]c4ccccc34)C(C3CCCCC3)N2C1=O (some centres not stated)
> 100 µM

Do the same for COC(=O)/C(C#N)=C1\CCC(Nc2cccc(C(F)(F)F)c2)N1C (configuration not stated) please
> 100 µM

Further, for O=C(Nc1ccc(Cl)cc1)Oc1ccc(C(=S)Nc2ccc(Br)cc2)cc1 ?
36 µM
